Values compiled from patent US20230093861A1.

- Test system: P-Akt (S473)
- method: Cell based AlphaLISA assay, inhibition of P-Akt (S473) (mTORC2 substrate phosphorylation) in MDA-MB-468 cells
- cond: Homo sapiens, MDA-MB-468, 4 h, AlphaLISA, two to four hours at 37° C., read-out: pIC50 for Inhibition of mTORC1 and mTORC2 Substrate Phosphorylation, p-AKT 1/2/3 -(S473) (converted)
- Method: Cell Based AlphaLISA Assays for Determining IC50 for Inhibition of P-Akt (S473), P-4E-BP1 (T37/46), and P-P70S6K (T389) in MDA-MB-468 Cells mTOR Kinase Cellular Assay To measure functional activity of mTORC1 and mTORC2 in cells the phosphorylation of 4EBP1 (Thr37/46) and P70S6K (Thr389), and AKT1/2/3 (Ser473) was monitored using AlphaLisa SureFire Ultra Kits (Perkin Elmer). […] Incubations were terminated by removal of the assay buffer and addition of lysis buffer provided with the assay kit. […]
assay_metric: IC50

Below: 3 compounds and their reported IC50.
Q) Quick check: IC50 of CO[C@H]1C[C@@H]2CC[C@@H](C)[C@@](O)(O2)C(=O)C(=O)N2CCCC[C@H]2C(=O)O[C@H]([C@H](C)C[C@@H]2CC[C@@H](O)[C@H](OC)C2)C[C@@H](O)[C@H](C)/C=C(\C)[C@@H](O)[C@@H](OC)C(=NOCc2cn(CCOCCOCCOCCOCCOCCOCCC(=O)NCCCCn3nc(-c4ccc5oc(N)nc5c4)c4c(N)ncnc43)nn2)[C@H](C)C[C@H](C)/C=C/C=C/C=C/1C ?
A) 31.6 to 1000 nM

Q) Quick check: IC50 of COc1ccc(-c2ccc3ncc4c(c3c2)n(-c2ccc(N3CCN(C(=O)CCOCCOCCOCCOCCOCCOCCOCCOCCn5cc(CCCCO[C@@H]6CC[C@@H](C[C@@H](C)[C@@H]7CC(=O)[C@H](C)/C=C(\C)[C@@H](O)[C@@H](OC)C(=O)[C@H](C)C[C@H](C)/C=C/C=C/C=C(\C)[C@@H](OC)C[C@@H]8CC[C@@H](C)[C@@](O)(O8)C(=O)C(=O)N8CCCC[C@H]8C(=O)O7)C[C@H]6OC)nn5)CC3)c(C(F)(F)F)c2)c(=O)n4C)cn1 ?
A) < 3.16 nM

Q) Quick check: IC50 of CCO[C@@H]1C[C@@H]([C@H](C)C[C@@H]2CC[C@H](n3cc(CCCC(=O)NCCOCCOCCOCCC(=O)NCCOCCOCCC(=O)NCCCCn4nc(-c5ccc6oc(N)nc6c5)c5c(N)ncnc54)nn3)[C@H](OC)C2)OC(=O)[C@@H]2CCCCN2C(=O)C(=O)[C@]2(O)O[C@@H](CC[C@H]2C)C[C@H](OC)/C(C)=C/C=C/C=C/[C@@H](C)C[C@@H](C)C(=O)[C@H](OC)[C@H](O)/C(C)=C/[C@H]1C ?
A) > 1000 nM

// input: 5 compounds below; output: IC50 for each
1. CO[C@H]1C[C@@H]2CC[C@@H](C)[C@@](O)(O2)C(=O)C(=O)N2CCCC[C@H]2C(=O)O[C@H]([C@H](C)C[C@@H]2CC[C@H](n3cc(CCCC(=O)N(C)CCOCCOCCOCCC(=O)N(C)CCOCCOCCC(=O)N(C)CCCCn4nc(-c5ccc6oc(N)nc6c5)c5c(N)ncnc54)nn3)[C@H](OC)C2)CC(=O)[C@H](C)/C=C(\C)[C@@H](O)[C@@H](OC)C(=O)[C@H](C)C[C@H](C)/C=C/C=C/C=C/1C
2. CO[C@H]1C[C@@H]2CC[C@@H](C)[C@@](O)(O2)C(=O)C(=O)N2CCCC[C@H]2C(=O)O[C@H]([C@H](C)C[C@@H]2CC[C@@H](OCc3cccc(-c4cnc(N5CCN(Cc6cn(CCOCCOCCOCCOCCOCCC(=O)NCCCCn7nc(-c8ccc9oc(N)nc9c8)c8c(N)ncnc87)nn6)C(CO)C5)nc4)c3)[C@H](OC)C2)CC(=O)[C@H](C)/C=C(\C)[C@@H](O)[C@@H](OC)C(=O)[C@H](C)C[C@H](C)/C=C/C=C/C=C/1C (stereo partly drawn)
3. CO/N=C1/C[C@@H]([C@H](C)C[C@@H]2CC[C@H](n3cc(COC(=O)NCCOCCOCCOCCC(=O)NCCOCCOCCC(=O)NCCCCn4nc(-c5ccc6oc(N)nc6c5)c5c(N)ncnc54)nn3)[C@H](OC)C2)OC(=O)[C@@H]2CCCCN2C(=O)C(=O)[C@]2(O)O[C@@H](CC[C@H]2C)C[C@H](OC)/C(C)=C/C=C/C=C/[C@@H](C)C[C@@H](C)C(=O)[C@H](OC)[C@H](O)/C(C)=C/[C@H]1C
4. CO[C@H]1C[C@@H]2CC[C@@H](C)[C@@](O)(O2)C(=O)C(=O)N2CCCC[C@H]2C(=O)O[C@H]([C@H](C)C[C@@H]2CC[C@@H](O)[C@H](OC)C2)C[C@@H](OC)[C@H](C)/C=C(\C)[C@@H](O)[C@@H](OC)/C(=N\OCc2cn(CCOCCOCCOCCOCCOCCOCCC(=O)NCCCCn3nc(-c4ccc5oc(N)nc5c4)c4c(N)ncnc43)nn2)[C@H](C)C[C@H](C)/C=C/C=C/C=C/1C
5. CO[C@H]1C[C@@H]2CC[C@@H](C)[C@@](O)(O2)C(=O)C(=O)N2CCCC[C@H]2C(=O)O[C@H]([C@H](C)C[C@@H]2CC[C@H](n3nncc3-c3cccc(-c4cnc(N5CCN(Cc6cn(CCOCCOCCOCCOCCOCCC(=O)NCCCCn7nc(-c8ccc9oc(N)nc9c8)c8c(N)ncnc87)nn6)CC5)nc4)c3)[C@H](OC)C2)CC(=O)[C@H](C)/C=C(\C)[C@@H](O)[C@@H](OC)C(=O)[C@H](C)C[C@H](C)/C=C/C=C/C=C/1C

A)
1: > 1000 nM; 2: < 3.16 nM; 3: > 1000 nM; 4: 31.6 to 1000 nM; 5: 3.16 to 31.6 nM

Q) Quick check: IC50 of CO[C@H]1C[C@@H]2CC[C@@H](C)[C@@](O)(O2)C(=O)C(=O)N2CCCC[C@H]2C(=O)O[C@H]([C@H](C)C[C@@H]2CC[C@H](n3cc(CCCC(=O)NCCOCCOCCOCCC(=O)NCCOCCOCCC(=O)NCCCCn4nc(-c5ccc6oc(N)nc6c5)c5c(N)ncnc54)nn3)[C@H](OC)C2)C/C(=N/OC(C)(C)C)[C@H](C)/C=C(\C)[C@@H](O)[C@@H](OC)C(=O)[C@H](C)C[C@H](C)/C=C/C=C/C=C/1C ?
A) > 1000 nM
